assayed-system: rNav1.2 sodium channels (HEK-293 cells) (Rattus norvegicus, UniProt P04775)
Sequence (P04775 whole entry): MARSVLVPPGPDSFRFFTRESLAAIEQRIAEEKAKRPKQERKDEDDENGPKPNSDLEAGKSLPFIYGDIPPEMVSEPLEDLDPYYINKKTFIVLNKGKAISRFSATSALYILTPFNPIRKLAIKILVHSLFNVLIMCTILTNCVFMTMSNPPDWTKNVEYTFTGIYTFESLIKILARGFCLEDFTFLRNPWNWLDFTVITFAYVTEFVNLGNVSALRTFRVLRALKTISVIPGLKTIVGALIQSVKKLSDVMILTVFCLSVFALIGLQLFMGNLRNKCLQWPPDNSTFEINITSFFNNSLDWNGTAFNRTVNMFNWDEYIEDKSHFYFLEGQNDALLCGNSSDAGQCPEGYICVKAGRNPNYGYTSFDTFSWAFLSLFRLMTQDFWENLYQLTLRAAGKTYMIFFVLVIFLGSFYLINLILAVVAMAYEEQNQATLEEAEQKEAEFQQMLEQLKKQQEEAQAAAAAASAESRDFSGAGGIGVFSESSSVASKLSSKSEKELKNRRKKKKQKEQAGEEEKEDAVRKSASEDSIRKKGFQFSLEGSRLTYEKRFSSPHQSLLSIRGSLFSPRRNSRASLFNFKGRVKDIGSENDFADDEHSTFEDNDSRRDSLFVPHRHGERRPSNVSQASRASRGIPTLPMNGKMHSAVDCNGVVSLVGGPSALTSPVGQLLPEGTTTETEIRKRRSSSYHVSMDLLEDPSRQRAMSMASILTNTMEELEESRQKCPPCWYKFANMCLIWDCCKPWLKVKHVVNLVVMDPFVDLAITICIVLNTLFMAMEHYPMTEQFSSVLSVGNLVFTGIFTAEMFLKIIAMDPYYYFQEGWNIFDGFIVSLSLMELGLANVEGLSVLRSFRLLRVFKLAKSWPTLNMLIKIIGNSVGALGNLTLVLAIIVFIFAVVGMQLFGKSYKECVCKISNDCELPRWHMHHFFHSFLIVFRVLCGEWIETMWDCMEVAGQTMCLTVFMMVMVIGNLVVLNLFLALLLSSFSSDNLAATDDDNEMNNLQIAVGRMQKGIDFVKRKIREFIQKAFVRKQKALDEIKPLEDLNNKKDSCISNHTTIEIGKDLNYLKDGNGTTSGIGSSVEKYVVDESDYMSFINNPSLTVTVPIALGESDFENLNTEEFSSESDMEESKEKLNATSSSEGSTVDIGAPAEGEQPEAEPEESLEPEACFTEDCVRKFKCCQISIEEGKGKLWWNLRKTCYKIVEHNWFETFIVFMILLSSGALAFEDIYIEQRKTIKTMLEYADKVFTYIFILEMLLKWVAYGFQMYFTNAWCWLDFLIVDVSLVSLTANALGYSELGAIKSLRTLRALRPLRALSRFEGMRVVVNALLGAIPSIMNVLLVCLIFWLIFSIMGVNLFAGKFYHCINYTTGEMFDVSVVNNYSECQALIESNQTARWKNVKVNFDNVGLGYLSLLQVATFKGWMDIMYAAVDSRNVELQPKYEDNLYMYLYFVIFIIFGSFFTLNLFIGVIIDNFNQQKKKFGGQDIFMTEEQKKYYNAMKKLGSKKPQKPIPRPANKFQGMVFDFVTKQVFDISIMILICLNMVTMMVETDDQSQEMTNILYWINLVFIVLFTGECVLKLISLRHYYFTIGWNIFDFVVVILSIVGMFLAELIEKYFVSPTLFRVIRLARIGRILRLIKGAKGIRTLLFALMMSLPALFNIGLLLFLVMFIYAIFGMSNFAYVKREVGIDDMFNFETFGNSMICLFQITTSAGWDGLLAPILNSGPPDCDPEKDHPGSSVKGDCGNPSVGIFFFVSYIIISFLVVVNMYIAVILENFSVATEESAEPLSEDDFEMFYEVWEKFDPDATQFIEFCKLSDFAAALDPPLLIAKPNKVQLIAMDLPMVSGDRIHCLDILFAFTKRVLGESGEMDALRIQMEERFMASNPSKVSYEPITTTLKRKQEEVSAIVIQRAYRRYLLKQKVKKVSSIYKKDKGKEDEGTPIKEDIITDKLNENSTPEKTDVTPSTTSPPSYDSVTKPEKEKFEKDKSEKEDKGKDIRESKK
experimental-protocol: steady-state inactivation protocol (availability curves), QPatch automated patch-clamp
Type: cell-based
experimental-setup: geometric mean; from Inh at −150 mV, 30 µM; read-out: Kr (resting state affinity)
assay-readout: log10 of Kd (log10 of the value in µM)
Form field - Quantity: Kd; Unit: µM; Scale: log10

- compound: "Fc1ccc([C@@H]2CCNC[C@H]2COc2ccc3c(c2)OCO3)cc1 [PRX, Paroxetine]"
  assay-readout: "log10 of Kd"
  assay-result: 1.38
- compound: "Cc1nc2sccn2c(=O)c1CCN1CCC(=C(c2ccc(F)cc2)c2ccc(F)cc2)CC1 [RIT, Ritanserin]"
  assay-readout: "log10 of Kd"
  assay-result: 2.31
- compound: "CCc1nn(CCCN2CCN(c3cccc(Cl)c3)CC2)c(=O)n1CCOc1ccccc1 [NFZ, Nefazodone]"
  assay-readout: "log10 of Kd"
  assay-result: 2.75

Task item: Lookup: log10 of Kd / rNav1.2 sodium channels (HEK-293 cells) (Rattus norvegicus, UniProt P04775) / CN(C)CCC=C1c2ccccc2CCc2ccccc21 [AMI, Amitriptyline]
Reply: 2.10

Task item: What about CN(C)CC/C=C1/c2ccccc2Sc2ccc(Cl)cc21 [CHX, Chlorprothixene] ?
Reply: 2.11

Task item: Note, next up: CN(C)CCCN1c2ccccc2Sc2ccc(Cl)cc21 [CPM, Chlorpromazine]
Reply: 1.84

----------
assayed-system: rNav1.2 sodium channels (HEK-293 cells) (Rattus norvegicus)
experimental-protocol: steady-state inactivation protocol (availability curves), QPatch automated patch-clamp
Format: cell-based
experimental-setup: arithmetic mean; 300 µM; read-out: Ki-Kapp arith
assay-readout: pKi
FYI, pKi means -log10 of a concentration in mol per litre.

The cases that follow already have their pKi on record.
- compound: "NC(=O)N1c2ccccc2C=Cc2ccccc21 [CBZ, Carbamazepine]"
  assay-readout: "pKi"
  assay-result: 4.57
- compound: "Nc1nnc(-c2cccc(Cl)c2Cl)c(N)n1"
  assay-readout: "pKi"
  assay-result: 4.39
- compound: "O=C1NC(=O)C(c2ccccc2)(c2ccccc2)N1"
  assay-readout: "pKi"
  assay-result: 4.11

Task item: Which pKi value is on record for O=C(NCC1CCCCN1)c1cc(OCC(F)(F)F)ccc1OCC(F)(F)F (stereo not shown) [FLC, Flecainide] ?
Reply: 5.21

Task item: Now this one: Cc1cccc(C)c1OCC(C)N (stereo not shown)
Reply: 4.72

Task item: Next compound: COc1ccccc1OCC(O)CN1CCN(CC(=O)Nc2c(C)cccc2C)CC1 (stereo not shown)
Reply: 4.71

Task item: Also `CCN(CC)CC(=O)Nc1c(C)cccc1C` ?
Reply: 4.15

----------
assayed-system: rNav1.2 sodium channels (HEK-293 cells) (Rattus norvegicus)
experimental-protocol: steady-state inactivation protocol (availability curves), QPatch automated patch-clamp
Type: cell-based
experimental-setup: geometric mean; from Inh at −150 mV, 10 µM; read-out: Kr (resting state affinity)
Text: A)–D) Peak amplitudes of evoked currents (5 Hz trains of 5 depolarizations from −90 to −10 mV) are plotted against time. Black dots: Control. Grey dots: Drug perfusion. […] Calculation of properties of inhibition is illustrated. […] E) Calculation of Kr and Ki values from steady-state availability curves. Standard steady-state inactivation protocols were used to measure the shift of steady-state availability curve caused by the drugs. […] State-dependence (SD) was quantified as the ratio Kr/Ki. […]
assay-readout: pKd
Formally, pKd is defined as -log10 of the concentration c, with c in mol/L.

Task item: Would you mind telling me what pKd value was observed for `CN(C)CCC=C1c2ccccc2CCc2ccccc21` ?
Reply: 3.87
